Taken from patent US10314816B2.

// values below are MIC; system is Acinetobacter baumannii
Kindly provide the numeric value in µM only, without the unit symbol.

[
  {
    "molecule": "OC(CNC1CCCCC1)Cn1c2ccc(Cl)cc2c2cc(Cl)ccc21 (stereo not shown) [Compound 9]",
    "study_target": "Acinetobacter baumannii",
    "MIC [µM]": 100
  }
]

Entry CCC(CC)CNCC(O)Cn1c2ccc(Cl)cc2c2cc(Cl)ccc21 (stereo not shown) [Compound 10] , MIC reported as 25

Entry CC(C)CCNCC(O)Cn1c2ccc(Cl)cc2c2cc(Cl)ccc21 (stereo not shown) [Compound 8] , MIC reported as 12.5

Entry OCC(CO)(CO)NCC(O)Cn1c2ccc(Cl)cc2c2cc(Cl)ccc21 (stereo not shown) [DCAP] , MIC reported as 200
